Values from patent US7163800B2

testSystem: HA-tagged human β2-adrenergic receptor (β2AR) (Homo sapiens)
Sequence (P07550 whole entry): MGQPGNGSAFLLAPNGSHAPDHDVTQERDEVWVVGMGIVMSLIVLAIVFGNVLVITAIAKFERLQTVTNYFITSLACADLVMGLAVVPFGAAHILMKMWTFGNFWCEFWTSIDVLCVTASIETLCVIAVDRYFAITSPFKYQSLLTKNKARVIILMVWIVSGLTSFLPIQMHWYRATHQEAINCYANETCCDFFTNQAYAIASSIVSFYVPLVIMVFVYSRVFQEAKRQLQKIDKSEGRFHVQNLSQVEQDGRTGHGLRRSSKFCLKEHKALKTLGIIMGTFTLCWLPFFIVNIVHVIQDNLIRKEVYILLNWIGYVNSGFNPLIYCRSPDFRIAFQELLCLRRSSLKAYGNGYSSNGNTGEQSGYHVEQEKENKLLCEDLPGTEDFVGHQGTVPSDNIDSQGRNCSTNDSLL
methodSummary: arrestin-GFP localization (Fgrains) assay in U20S-β2AR/ArrGFP cells, isoproterenol stimulated
conditions: B2AR RT plate: room temperature, atmospheric CO2; 100 nM isoproterenol
List of slope of concentration-response curve values.

compound | slope of concentration-response curve
NCCCn1cc(C2=C(c3c[nH]c4ccccc34)C(=O)NC2=O)c2ccccc21 [Bisindolylmaleimide III] | 1.2
Cn1cc(C2=C(c3cn(CCCN)c4ccccc34)C(=O)NC2=O)c2ccccc21 [RO-31-7549] | 0.8
C[n+]1cc2c3c(ccc2c2ccc4cc5c(cc4c21)OCO5)OCO3 [Sanguinarine Chloride (LOPAC), Sanguinarine Chloride] | 1.8
Cn1cc(C2=C(c3c4n(c5ccccc35)CCC(CN)C4)C(=O)NC2=O)c2ccccc21 (stereo not shown) [RO-31-8425] | 1.3
